# Test system: K-562 leukemia
# Test description: NCI tumour cell line growth inhibition, 48 h
Below, each of the compounds is paired with its reported TGI value.

| Compound | Unit tag | Operator symbol | TGI |
| --- | --- | --- | --- |
| C=C1C(=O)O[C@@H]2/C=C(C)/C=C\[C@@H]3O[C@@]3(C)C[C@@H](O)C12 (stereo not given in full) | µM | = | 20.6 |
| COc1ccc(C2c3cc4c(cc3OC3(OC)COC(=O)C23)OCO4)c(OC)c1 (stereo not given) | µM | = | 34.4 |
| O=C1c2ccccc2C(=O)c2c(/C=C\N3CCCCC3)ccnc21 | µM | = | 36 |
| CC(=O)OCc1ccc2c(c1)C(O)NC(=O)O2 (stereo not given) | µM | > | 100 |
| Cc1ccc(S(=O)(=O)N2CC2CCCCC=O)cc1 (stereo not given) | µM | > | 100 |
| COc1ccc(C(C)NNC(=O)c2ccncc2)cc1OC (stereo not given) | µM | > | 100 |
| COc1cc2c(cc1OC)C(Cl)C(c1ccc(F)cc1)=C2Cl (stereo not given) | µM | = | 44.6 |
| O=c1[nH]c(=O)c2c3n(cc2[nH]1)CCCCC3 | µM | > | 100 |
| O=C(Nc1nn2c(-c3cc(C(F)(F)F)cc(C(F)(F)F)c3)nnc2s1)C1CCCC1 | µM | > | 100 |
| O=C1C(C(Nc2ccccc2)c2ccccc2)=C([O-])c2ccccc21.O=C1C(C(Nc2ccccc2)c2ccccc2)=C([O-])c2ccccc21.[Cu+2] (stereo not given) | µM | > | 100 |
